Molecular target: UniProt P33032
Sequence (P33032 whole entry): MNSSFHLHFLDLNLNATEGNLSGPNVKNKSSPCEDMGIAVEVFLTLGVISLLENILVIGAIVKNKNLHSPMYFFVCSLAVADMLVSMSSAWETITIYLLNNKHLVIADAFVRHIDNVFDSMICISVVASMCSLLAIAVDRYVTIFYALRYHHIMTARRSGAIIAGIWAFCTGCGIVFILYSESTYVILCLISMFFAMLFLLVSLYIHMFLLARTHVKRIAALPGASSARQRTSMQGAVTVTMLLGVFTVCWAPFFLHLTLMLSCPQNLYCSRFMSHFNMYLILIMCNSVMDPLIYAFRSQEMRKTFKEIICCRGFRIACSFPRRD
Assay: Displacement of [125I]NDP-alphaMSH from human MC5 receptor expressed in HEK293 cells relative to MT2
Format: cell-based
What Activity was measured for each of the following?

Please report the recorded Activity for CC(=O)N[C@H]1CSSC[C@@H](C(=O)N(CCCCN=C(N)N)[C@H](Cc2c[nH]c3ccccc23)C(N)=O)NC(=O)[C@@H](Cc2ccccc2)NC(=O)[C@H](Cc2c[nH]cn2)NC1=O . 0%

Please report the recorded Activity for CC(=O)N[C@H]1CSSC[C@@H](C(=O)N[C@@H](Cc2c[nH]c3ccccc23)C(N)=O)N(CCCCN=C(N)N)C(=O)[C@@H](Cc2ccccc2)NC(=O)[C@H](Cc2c[nH]cn2)NC1=O . 0%

Please report the recorded Activity for CC(=O)N[C@H]1CSSC[C@@H](C(=O)N(CCCCN=C(N)N)C(Cc2c[nH]c3ccccc23)C(N)=O)NC(=O)[C@@H](Cc2ccc3ccccc3c2)NC(=O)[C@H](Cc2c[nH]cn2)NC1=O (stereo in doubt) . < 10%
